# Assay Target: T1, human GPC3 (human, UniProt P51654 25-563)
# T1 construct: range 25-563; soluble analyte; also called soluble human GPC3; glypican 3
# T1 sequence (P51654 25-563 limits assumed): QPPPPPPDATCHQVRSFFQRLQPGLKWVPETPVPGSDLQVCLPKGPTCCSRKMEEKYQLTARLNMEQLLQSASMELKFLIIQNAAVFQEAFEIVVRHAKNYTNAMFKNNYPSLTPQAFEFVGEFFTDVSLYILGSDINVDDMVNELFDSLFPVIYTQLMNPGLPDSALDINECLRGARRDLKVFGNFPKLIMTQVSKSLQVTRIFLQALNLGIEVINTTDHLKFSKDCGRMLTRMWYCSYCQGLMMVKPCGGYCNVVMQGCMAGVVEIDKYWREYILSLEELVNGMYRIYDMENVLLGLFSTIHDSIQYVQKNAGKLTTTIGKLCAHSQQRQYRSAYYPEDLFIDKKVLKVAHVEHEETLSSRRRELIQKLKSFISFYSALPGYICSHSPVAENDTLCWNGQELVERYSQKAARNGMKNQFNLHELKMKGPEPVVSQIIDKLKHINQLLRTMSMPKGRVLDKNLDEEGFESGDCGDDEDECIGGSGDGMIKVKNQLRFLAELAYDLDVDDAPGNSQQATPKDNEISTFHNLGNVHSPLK
# Measurement Protocol: SPR
What pKd was measured for each of the following?
pKd here: minus log base 10 of the concentration, concentration in moles per litre.

// pKd lookup, binder = H0610-G1dh/none-Hi-Kn010G3/L0211-k0 (antibody, V domains shown, one-arm) VH: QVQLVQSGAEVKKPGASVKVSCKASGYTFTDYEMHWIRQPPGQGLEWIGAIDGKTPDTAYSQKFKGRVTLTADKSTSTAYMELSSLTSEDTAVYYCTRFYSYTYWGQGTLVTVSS VL: DIVMTQSPLSLPVTPGEPASISCRSSQPPVHSNRNTYLHWYQQKPGQAPRLLIYKVSNRFSGVPDRFSGSGSGTDFTLKISRVEAEDVGVYYCYQGTQVPYTFGQGTKLEIKR , result: 9.19

// pKd lookup, binder = GCH054-G1dh/none-Hi-Kn010G3/TR01L018-k0 (antibody, V domains shown, one-arm) VH: QVQLVQSGAEVKKPGASVTVSCKASGYTFTDYEMHWIRQPPGEGLEWIGAIDGETPDTAYSEKFKGRVTLTADKSTSTAYMELSSLTSEDTAVYYCTRFYSYTYWGQGTLVTVSS VL: DIVMTQSPLSLPVTPGEPASISCQASESPVHSNRNTYLHWYLQKPGQSPQLLIYKVSNRFSGVPDRFSGSGSGTDFTLKISRVEAEDVGVYYCGQGTQVPYTFGQGTKLEIK , result: 8.59

// pKd lookup, binder = GCH099-G1dh/none-Hi-Kn010G3/L0201-k0 (antibody, V domains shown, one-arm) VH: QVQLVQSGAEVKKPGASVTVSCKASGYTFTDYEMHWVRQAPGEGLEWMGAIDGWTPDTAYSEKFKGRVTLTADKSTSTAYMELSSLTSEDTAVYYCTRFYSYTYWGQGTLVTVSS VL: DIVMTQSPLSLPVTPGEPASISCRSSQPPVHSNRNTYLHWYQQKPGQAPRLLIYKVSNRFSGVPDRFSGSGSGTDFTLKISRVEAEDVGVYYCGQGTQVPYTFGQGTKLEIKR , result: 8.89

// pKd lookup, binder = H0610-G1dh/none-Hi-Kn010G3/L0214-k0 (antibody, V domains shown, one-arm) VH: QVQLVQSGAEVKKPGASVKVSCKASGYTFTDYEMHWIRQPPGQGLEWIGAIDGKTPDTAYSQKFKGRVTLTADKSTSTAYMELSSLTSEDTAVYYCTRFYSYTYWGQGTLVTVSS VL: DIVMTQSPLSLPVTPGEPASISCRSSQPPVHSNRNTYLHWYQQKPGQAPRLLIYKVSNRFRGVPDRFSGSGSGTDFTLKISRVEAEDVGVYYCGQGTQVPYTFGQGTKLEIK , result: 9.18

// pKd lookup, binder = GCH057-G1dh/none-Hi-Kn010G3/L0222-k0 (antibody, V domains shown, one-arm) VH: QVQLVQSGAEVKKPGASVTVSCKASGYTFTDYEMHWIRQPPGEGLEWIGAIDGETPDTAYSEKFEGRVTLTADKSTSTAYMELSSLTSEDTAVYYCTRFYSYTYWGQGTLVTVSS VL: DIVMTQSPLSLPVTPGEPASISCRSSQSPVHSNRNTYIQWYQQKPGQAPRLLIYKVSNRFSGVPDRFSGSGSGTDFTLKISRVEAEDVGVYYCYQGTQVPYTFGQGTKLEIKR , result: 11.73
